- target: His-tagged recombinant human Gal-3 (hGal-3) (Homo sapiens (Human), UniProt P17931)
- Sequence (P17931 whole entry): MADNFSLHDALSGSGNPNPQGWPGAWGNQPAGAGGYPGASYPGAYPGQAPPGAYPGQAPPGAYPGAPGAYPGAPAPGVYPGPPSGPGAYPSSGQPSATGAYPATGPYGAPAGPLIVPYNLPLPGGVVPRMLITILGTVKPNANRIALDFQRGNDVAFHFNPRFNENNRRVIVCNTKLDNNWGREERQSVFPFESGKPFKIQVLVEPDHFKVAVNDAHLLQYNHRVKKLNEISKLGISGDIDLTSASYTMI
- assayRemarks: Gal-3 HTRF assay (His-tagged hGal-3 binding to B-ASF);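 further: compounds preincubated 30 min with hGal-3, then 1 h with B-ASF, detection via terbium anti-His antibody and streptavidin d2. Control with B-ASF counts as full signal, omitting B-ASF as background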
- testContext: HTRF, hGal-3 15 nM, B-ASF 15 nM; read-out: hGal-3 IC50
pIC50: −log10 of the molar value.
recordedEndpoint: pIC50

Example compounds with recorded pIC50:
smilesData | pIC50
O=C(O)c1ccccc1-n1ncnc1[C@@H]1O[C@H](CO)[C@H](O)[C@H](n2cc(-c3cc(F)c(F)c(F)c3)nn2)[C@H]1O | 6.10
OC[C@H]1O[C@@H](c2ncnn2-c2ccccc2)[C@H](O)[C@@H](n2cc(-c3cc(F)c(F)c(F)c3)nn2)[C@H]1O | 6.15

[A] O=S(=O)(Nc1nccs1)c1ccc(-n2cnnc2[C@@H]2O[C@H](CO)[C@H](O)[C@H](n3cc(-c4cc(F)c(F)c(F)c4)nn3)[C@H]2O)cc1
[B] Cc1nc2ccc(-n3ncnc3[C@@H]3O[C@H](CO)[C@H](O)[C@H](n4cc(-c5cc(F)c(N6CCOCC6)c(F)c5)nn4)[C@H]3O)cc2s1
[C] CO[C@@H]1[C@@H](n2cc(-c3cc(F)c(Cl)c(F)c3)nn2)[C@@H](O)[C@@H](CO)O[C@H]1c1nc(C)nn1-c1ccc2ncsc2c1
[D] COC(=O)c1cc2ccc(-n3cnnc3[C@@H]3O[C@H](CO)[C@H](O)[C@H](n4cc(-c5cc(F)c(F)c(F)c5)nn4)[C@H]3O)cc2s1
Exercise: Kindly order the items shown according to pIC50, from the highest value down. Return the labels ranked in the requested order, please.
Key: C, B, D, A
(C: 7.70, B: 7.10, D: 6.66, A: 6.12)
